B1: ZNF511 (parent)
chain: FDALDDYEHHYHTLHGNVCSFCKR

Variants of: B1
Assay: protein stability index of a GFP-peptide fusion (GPS, HEK-293T) (PSI 1-6); higher = more stable;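 note: lentivirally expressed fusions sorted by FACS into six bins by GFP to DsRed ratio, PSI derived from sequencing read proportions per bin multiplied by bin number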
Conditions: c terminus: a fixed tail appended
Assign class by protein stability index: not lower than 4 means fulfilled; lower than 4 means not fulfilled.

{"Biopolymer sequence": "FDALDDYEHHYHTLHGMVCSFCKR [N17M]", "Group": "not fulfilled"}
{"Biopolymer sequence": "FDALDDYEHHYHTLHGNVCIFCKR [S20I]", "Group": "not fulfilled"}
{"Biopolymer sequence": "KDALDDYEHHYHTLHGNVCSFCKR [F1K]", "Group": "fulfilled"}
{"Biopolymer sequence": "FDALDDYEHHYHTLKGNVCSFCKR [H15K]", "Group": "not fulfilled"}
{"Biopolymer sequence": "FDALDDYEHHMHTLHGNVCSFCKR [Y11M]", "Group": "fulfilled"}

Tell me whether protein stability index is at least 4 here: FDALDPYEHHYHTLHGNVCSFCKR [D6P]
not fulfilled

One more variant: FDAWDDYEHHYHTLHGNVCSFCKR [L4W]
not fulfilled

Same question, FDALDDYEHHCHTLHGNVCSFCKR [Y11C] this time
fulfilled

Try the variant FDALDDYEHHYHTLHGNVCSWCKR [F21W]
fulfilled

Try this variant too: FDALDDYEHHYHTLHFNVCSFCKR [G16F]
not fulfilled

Let us now turn to FDALDDYEHHYHTLHGNVCSFKKR [C22K]
not fulfilled

Field entry: FDALDDYEHHYHYLHGNVCSFCKR [T13Y]
not fulfilled

One more variant: FDALDDYEHHYSTLHGNVCSFCKR [H12S]
not fulfilled

Please give the result for FDALDDYEHHYHTLMGNVCSFCKR [H15M] too.
not fulfilled
